Where these numbers come from: paper PMC2756588

- STUDY_TARGET: T1, Lsb4, P32793
- T1 sequence (P32793 402-468, looked up): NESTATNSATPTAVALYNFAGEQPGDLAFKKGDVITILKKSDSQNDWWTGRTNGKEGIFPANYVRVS
- EXPERIMENT_NOTES: SPOT array
- PROTOCOL_CONDITIONS: median of control spots 397
PROPERTY_LABEL: SPOT intensity

BINDER | SPOT intensity
ALRRRLPVTRSKINW | 7

I: QLMKNLPKIPLLNDI
II: NNQRRKPLLLNIGDH
III: LKHGWKPLRPIKLIS
IV: DGNEEKPLLPTRPNK
V: SRSKPLPLTPNSKYN
List by increasing SPOT intensity. List the labels according to the requested ordering.
II, V, III, I, IV
(II: 0, V: 2, III: 4, I: 41, IV: 281)

P: SPLGAPPPPPHKDHL
Q: EEEEEHPPLPARRKS
R: APKREAPKPPANTSP
List by increasing SPOT intensity. List the labels according to the requested ordering.
P, R, Q
(P: 0, R: 1, Q: 590)

A: NQARKPFLLPATELS
B: NILKRRPLKLEAPSK
From the items above, decide which of A and B has the lower SPOT intensity reading. In your reply, give the label of the chosen option.
A
